B1: LINE1-full (parent)
chain: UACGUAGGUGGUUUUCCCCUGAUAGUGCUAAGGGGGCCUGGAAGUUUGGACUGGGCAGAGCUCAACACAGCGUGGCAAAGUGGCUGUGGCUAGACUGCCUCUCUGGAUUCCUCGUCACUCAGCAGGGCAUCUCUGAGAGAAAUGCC

variants of: B1; test: self-cleavage, relative activity (ratio to wild type); higher = more cleavage; in vitro, sequencing; the parent is a self-cleaving ribozyme
So basically every entry gets a class from its self-cleavage, ranges being low band (below 0.2), middle band (0.2 to below 1), high band (1 or more)

Consider the worked cases shown below.
residue sequence: UACGUAGGUGGUUUUCCCCUGAUAGUGCUAAGGGGGCCUGGAAGUUUGGACUGGGCAGAGCUCAACACAGCGUGGCAAAGUGGCUAUGGCUAGGCUGCCUCUCUGGAUUCCUCGUCACUCAGCAGGGCAUCUCUGAGAGAAAUGCC [G86A A94G]
classification: low band
//
residue sequence: UACGUAGGUGGUUUUCCCCUGAUAGGGCUAAGGGGGCCUGGAAGUUUGGACUGGGCAGAGCUCAACACAGCGUGGCAAAGUGGCUGUGGCUAGACUGCCUCUCUGGAUUCCUCGUCACUCCGCAGGGCAUCUCUGAGAGAAAUGCC [U26G A121C]
classification: high band
//
residue sequence: UACGUAGGUGGUUUUCCCCUGAUAGUGCUAAGGGGGCCUGGAAGUUUGGCCUGGGCAGAGCUCAACACAGCGUGGCAAAGUGGCUGUGGCUAGACUGCCUCUCUGGAUUCCUCGUCACUCAGCAGGGCACCUCUGAGAGAAAUGCC [A50C U130C]
classification: high band

stdin: State the class of the variant shown: UACGUAGGUGGUUUUCCCCUGAUAGUGCUAAGGGGGCCUGGAAGUUUGGACCGGGCAGAGCUCAACACAGCGAGGCAAAGUGGCUGUGGCUAGACUGCCUCUCUGGAUUCCUCGUCACUCAGCAGGGCAUCUCUGAGAGAAAUGCC [U52C U73A]
stdout: high band
